Item-by-item account of Time
tested on: Pontoscolex corethrurus; assay: Anthelmintic activity against Pontoscolex corethrurus ICARBC 408 assessed as mean death time; assay type: functional
Residues, ends and D or L forms follow the SMILES beside them. *: point of attachment. X2 = O=C(c1cc(-c2nc3ccc([N+](=O)[O-])cc3[nH]2)ccc1O)*; X1 = Cc1cc2nc(-c3ccc(O)c(C(=O)*)c3)[nH]c2cc1C
Measurement Name: Time (min)

1) COC(=O)[C@@H]1CCCN1C(=O)[C@@H]1CCCN1C(=O)[C@@H]1CCCN1C(=O)c1cc(-c2nc3ccc([N+](=O)[O-])cc3[nH]2)ccc1O: 40.38
2) COC(=O)[C@H](Cc1ccc(O)cc1)NC(=O)[C@H](Cc1cnc[nH]1)NC(=O)c1ccc(-c2nc3cc(C)c(C)cc3[nH]2)cc1: 29.18
3) COC(=O)CNC(=O)[C@H](CC(C)C)NC(=O)c1ccc(-c2nc3cc(C)c(C)cc3[nH]2)cc1: 49.4
4) Cc1cc2nc(-c3ccc(C(=O)N[C@@H](Cc4cnc[nH]4)C(=O)N[C@@H](Cc4ccc(O)cc4)C(=O)O)cc3)[nH]c2cc1C: 29.02
5) COC(=O)[C@H](Cc1ccc(O)cc1)NC(=O)[C@H](C)NC(=O)[C@H](Cc1c[nH]c2ccccc12)NC(=O)c1cc(-c2nc3cc(C)c(C)cc3[nH]2)ccc1O: 29.34
6) C[C@H](NC(=O)[C@@H]1CCCN1C(=O)c1cc(-c2nc3ccc([N+](=O)[O-])cc3[nH]2)ccc1O)C(=O)O: 43.55
7) Cc1cc2nc(-c3ccc(C(=O)N[C@@H](CCCNC(=N)N[N+](=O)[O-])C(=O)O)cc3)[nH]c2cc1C: 34.96
8) COC(=O)CNC(=O)CNC(=O)c1cc(-c2nc3ccc([N+](=O)[O-])cc3[nH]2)ccc1O: 42.45
9) COC(=O)[C@H](C)NC(=O)[C@@H]1CCCN1C(=O)c1cc(-c2nc3ccc([N+](=O)[O-])cc3[nH]2)ccc1O: 43.76
10) COC(=O)CNC(=O)[C@H](CC(C)C)NC(=O)[C@@H]1CCCN1C(=O)[C@H](Cc1cnc[nH]1)NC(=O)c1cc(-c2nc3ccc([N+](=O)[O-])cc3[nH]2)ccc1O (X2-HPLG-OMe): 21.72
11) COC(=O)[C@H](Cc1cnc[nH]1)NC(=O)CNC(=O)[C@H](Cc1c[nH]c2ccccc12)NC(=O)CNC(=O)c1cc(-c2nc3cc(C)c(C)cc3[nH]2)ccc1O (X1-GWGH-OMe): 26.21
12) COC(=O)[C@@H]1CCCN1C(=O)[C@@H](NC(=O)[C@H](Cc1ccccc1)NC(=O)c1cc(I)c(-c2nc3cc(C)c(C)cc3[nH]2)c(I)c1)C(C)C: 50.22
13) CC(C)[C@H](NC(=O)c1cc(-c2nc3ccc([N+](=O)[O-])cc3[nH]2)ccc1O)C(=O)N[C@@H](Cc1ccccc1)C(=O)N[C@@H](Cc1cnc[nH]1)C(=O)O: 22.79
14) COC(=O)[C@H](Cc1c[nH]c2ccccc12)NC(=O)c1cc(-c2nc3ccc([N+](=O)[O-])cc3[nH]2)ccc1O: 29.41

Attribution: ChEMBL document CHEMBL1146375
